# ASSAY_METHOD_TEXT: Cmax in Sprague-Dawley rat at 3 mg/kg, po by LC-MS analysis
# Assay type: ADME, organism-based
# Parameters: dose 3 mg/kg, route oral
# RECORDED_CONDITIONS: in vivo
REPORTED_METRIC: Cmax (ng/mL)
Express the result in ng/mL but write the number alone.

COc1ccc(NC(=O)c2ccc(C(=N)N(C)C)cc2)c(C(=O)Nc2ccc(Cl)cn2)c1    146

Per the record, COc1ccc(NC(=O)c2nc3c(s2)CN(C)CC3)c(C(=O)Nc2ccc(Cl)cn2)c1 has Cmax of 221

====

Parameter IC50: see the listing below.
# STUDY_SYSTEM: Trypsin (Homo sapiens, UniProt P07477+P07478+P35030)
# ASSAY_METHOD_TEXT: Inhibition of human trypsin preincubated for 30 mins followed by substrate addition and measured for 20 mins
Express the result in µM but write the number alone.

Entry under test: COc1ccc(NC(=O)c2nc3c(s2)CN(C)CC3)c(C(=O)Nc2ccc(Cl)cc2)c1 . Its IC50 was 18

// field: IC50; key: COc1ccc(NC(=O)c2nc3c(s2)CN(C)CC3)c(C(=O)Nc2ccc(C)cn2)c1 ; value = 54

Please fill in: IC50 reported for COc1ccc(NC(=O)c2nc3c(s2)CN(C)CC3)c(C(=O)Nc2ccc(Cl)cn2)c1 = 9.1

====

# ASSAY_METHOD_TEXT: Tmax in Sprague-Dawley rat at 3 mg/kg, po by LC-MS analysis
# Format: ADME, organism-based
# RECORDED_CONDITIONS: in vivo
Listing of recorded Tmax by entry.
Provide only the numeric value, understood in h.

COc1ccc(NC(=O)c2ccc(C(=N)N(C)C)cc2)c(C(=O)Nc2ccc(Cl)cn2)c1 [BETRIXABAN]    2.6

Okay, next one:
# Tmax (compound: COc1ccc(NC(=O)c2nc3c(s2)CN(C)CC3)c(C(=O)Nc2ccc(Cl)cn2)c1 ) is 3.2

====

Entries and their IC50
# STUDY_SYSTEM: Coagulation factor X (Homo sapiens, UniProt P00742)
# Sequence (P00742 41-179 limits assumed): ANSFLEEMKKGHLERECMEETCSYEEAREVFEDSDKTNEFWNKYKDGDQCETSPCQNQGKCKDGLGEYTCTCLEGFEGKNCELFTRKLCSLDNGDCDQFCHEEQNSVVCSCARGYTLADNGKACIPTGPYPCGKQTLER
# Sequence (P00742 235-488 limits assumed): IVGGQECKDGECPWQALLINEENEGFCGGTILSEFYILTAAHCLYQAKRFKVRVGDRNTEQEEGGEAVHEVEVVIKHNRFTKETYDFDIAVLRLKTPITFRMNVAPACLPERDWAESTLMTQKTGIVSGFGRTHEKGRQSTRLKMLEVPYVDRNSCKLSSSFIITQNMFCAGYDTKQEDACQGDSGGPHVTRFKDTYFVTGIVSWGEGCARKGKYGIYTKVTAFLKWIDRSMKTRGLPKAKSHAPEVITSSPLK
Express the reported value numerically, then name its unit.

Use these answered entries as a reference point.
COc1ccc(NC(=O)c2ccc(N3CCOCC3=O)cc2)c(C(=O)Nc2ccc(C(C)(C)C)cc2)c1    2090 nM
COc1ccc(NC(=O)c2nc3c(s2)CN(C)CC3)c(C(=O)Nc2ccc(C)cn2)c1    10 nM
COc1ccc(NC(=O)c2ccc(N3CCCCC3=O)cc2)c(C(=O)Nc2ccc(C(C)(C)C)cc2)c1    272 nM

Record COc1ccc(NC(=O)c2ccc(N3CCOCC3=O)cc2)c(C(=O)Nc2ccc(Cl)cc2)c1 ; system Coagulation factor X (Homo sapiens, UniProt P00742); IC50 = 18 nM

COc1cccc(NC(=O)c2cc(OC)ccc2NC(=O)c2nc3c(s2)CN(C)CC3)c1 on Coagulation factor X (Homo sapiens, UniProt P00742) gives IC50 = 981 nM

// returns IC50 for C#Cc1ccc(NC(=O)c2cc(OC)ccc2NC(=O)c2nc3c(s2)CN(C)CC3)cc1 with Coagulation factor X (Homo sapiens, UniProt P00742); value = 20 nM

Given the compound COc1ccc(NC(=O)c2nc3c(s2)CN(C)CC3)c(C(=O)Nc2cccc(Cl)c2)c1 and test system Coagulation factor X (Homo sapiens, UniProt P00742), the measured IC50 is 315 nM

====

Documented 2aPTT across a set of compounds
# System: Plasma
# ASSAY_METHOD_TEXT: Anticoagulant activity in citrated rabbit plasma assessed as concentration required to double activated partial thromboplastin time after 10 mins by coagulometric analysis
# Format: functional, Oryctolagus cuniculus
State the result as a value with its unit after it.

Reference set, count: 3
COc1ccc(NC(=O)c2ccc(C(=N)N(C)C)cc2)c(C(=O)Nc2ccc(Cl)cn2)c1 [BETRIXABAN]    1.1 µM
COc1ccc(NC(=O)c2nc3c(s2)CN(C)CC3)c(C(=O)Nc2ccc(Cl)cc2)c1    0.8 µM
COc1ccc(NC(=O)c2nc3c(s2)CN(C)CC3)c(C(=O)Nc2ccc(C)cn2)c1    2.2 µM

Given item COc1ccc(NC(=O)c2nc3c(s2)CN(C)CC3)c(C(=O)Nc2ccc(Cl)cn2)c1 , the value recorded as its 2aPTT is 0.5 µM

Data provenance: ChEMBL document CHEMBL4382223
